Origin of measurements: patent US6569834B1

- System: OVCAR-3
- assay_summary: Human cancer cell growth inhibition, ovarian OVCAR-3
- Type: cell-based
Hi there, I'd appreciate the recorded GI-50 for every entry that follows.
Give bare numbers, in µg/mL.

List GI-50 for every entry below, keeping the order given.
1. CC[C@H](C)[C@@H]([C@@H](CC(=O)N1CCC[C@H]1[C@H](OC)[C@@H](C)C(=O)NCCN(C)C)OC)N(C)C(=O)[C@@H](NC(=O)[C@H](C(C)C)N(C)C)C(C)C [Peptide 6c]
2. CC[C@H](C)[C@@H]([C@@H](CC(=O)N1CCC[C@H]1[C@H](OC)[C@@H](C)C(=O)NCCc1ccccn1)OC)N(C)C(=O)[C@@H](NC(=O)[C@H](C(C)C)N(C)C)C(C)C [Peptide 6a]

-- reply
[0.0028, 0.000039]
